Tested on: BT-549 breast
Assay: NCI-60 one-dose screen, 48 h (100 = growth as untreated, 0 = no growth, -100 = all killed)
Conditions: 10 µM unless noted
This is part of a sample that, as a whole, favours compounds with a hit. Of some 83,000 tested, about 20% had one in any assay. Activity calls are given as the source filed them. Rule for the calls: active = growth percent below 10; inactive = the rest.

# COMPOUND, growth
records = [
    ("C#Cc1ccc2c(c1)C(c1ccccc1)=NCC(=O)N2C", "45.2% (inactive)"),
    ("COc1ccc(/C=C/c2cc(OC)c(OC)c(OC)c2)cc1NC(=O)/C=C/c1ccc(F)cc1", "35.1% (inactive)"),
    ("CCCCN1CCCC[C@@H]1C(=O)N[C@H](C(=O)N(C)[C@H](C[C@@H](OC(C)=O)c1nc(C(=O)NC2CCC(C(=O)OC)CC2)cs1)C(C)C)C(C)C (stereo not given in full)", "40.1% (inactive)"),
    ("O=C1NC(=O)C(=Cc2ccc(OCCCCC3CCCCC3)c(Cl)c2)C(=O)N1", "95.1% (inactive)"),
    ("CC(=O)OC1C(OC/C2=C/C3[C@@H](C(C)C)CC=C(C)[C@@H]3CC(OC(=O)/C=C/c3cn(C)cn3)[C@]3(C)C=C[C@@]2(O)O3)OCC(O)C1O (stereo not given in full)", "-14.3% (active)"),
    ("CC(CO)NC1CCCCC1 (stereo not given)", "106% (inactive)"),
    ("COC(=O)[C@@H](C)C[C@H](Cc1ccccc1)NC(=O)c1csc([C@@H](C[C@H](C(C)C)N(C)C(=O)C2(NC(=O)[C@H]3CCCCN3C)CC2)OC(C)=O)n1", "12.8% (inactive)"),
    ("CC(C)OC(=O)[C@H](C)NP(=O)(Oc1ccccc1)C1CCCN(O)C1=O (stereo not given in full)", "95% (inactive)"),
    ("CCN(CC)c1ccc2c(c1)OC(N)=C(C#N)C2c1cc(OC)c2c(c1)OCO2 (stereo not given)", "16.6% (inactive)"),
    ("CC[C@H](C)[C@H](NC(=O)[C@H]1CCCCN1C)C(=O)N(C)[C@H](C[C@@H](OC(C)=O)c1cccc(C(=O)N[C@@H](Cc2ccccc2)C[C@H](C)C(=O)O)n1)C(C)C", "-18.7% (active)"),
]
